Molecular target: T1, Human IL-11 (human, UniProt P20809 22-199)
T1 construct: Recombinant human IL-11 (GenScript Cat. No. Z03108-1) or IL-11 secreted by human cells; the mature form is said to have 178 residues; also called recombinant human IL-11; endogenously produced IL-11
T1 sequence: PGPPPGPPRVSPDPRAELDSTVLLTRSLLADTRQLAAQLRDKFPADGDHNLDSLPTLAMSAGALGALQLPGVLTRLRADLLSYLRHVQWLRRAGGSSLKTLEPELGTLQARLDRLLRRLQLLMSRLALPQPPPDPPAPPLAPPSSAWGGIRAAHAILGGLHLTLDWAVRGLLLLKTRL
Test: ELISA on coated recombinant human IL-11 (100 ng/well), scFv-Fc
Description: The light chain shuffled anti-IL-11 antibodies were analysed to determine the EC50 for binding to human IL-11 by ELISA according to standard methods. Briefly, wells of microtiter plates were coated with recombinant human IL-11 (100 ng/well), scFv-Fc comprising the VH and VL domains of the clones were added in a dilution series and antibody binding was detected using a polyclonal antibody detection system.
Would you kindly list EC50 for each of these binders?
One number for each entry, in µg/mL.

YU100-B07 (antibody) QVQLVESGGGVVQPGRSLRLSCAASGFTFSSYGMHWVRQAPGKGLEWVAVISYDGSNKYYADSVKGRFTISRDNSKNTLYLQMNSLRAEDTAVYYCAKIGATDPLDYWGQGTLVTVSSGSASAPKLEEGEFSEARVQSALTQPRSVSGSPGQSVTMSCTGTSRDVGGYNYVSWYQHHPGKAPKLMIYDVSKRPSGVPDRFSGSKSGNTASLTISELQAEDEADYYCCSYAGSYTWVFGGGTKLTVL
0.023

Could you tell me which EC50 is on file for YU100-E04 (antibody) QVQLQQSGGGVVQPGRSLRLSCAASGFTFSSYGMHWVRQAPGKGLEWVAVISYDGSNKYYADSVKGRFTISRDNSKNTLYLQMNSLRAEDTAVYYCAKIGATDPLDYWGQGTLVTVSSGSASAPKLEEGEFSEARVQSALTQPRSVSGSPGQSVTISCTGTSSDVGGYNYVSWYQQHPGKTPKLMIYDVTKRPSGVPDHFSGSKSGNTASLTISGLQAEDEADYYCCSYAGSHIWVFGGGTKLTVLGQPKAAPSVTLFPPSS ?
0.036
